subject_of_test: human liver glycogen phosphorylase a (HLGPa) (Homo sapiens, UniProt P06737)
Construct: creating a full-length cDNA fused at the 5′ end to codons for methionine-glycine-alanine-histidine; 6xHis tag (leader Met-Gly-Ala-His6-Gly-Gly) (N); made in house; host or cells: E. coli (bacterial expression plasmid pTXK1007LTev)
Sequence (P06737 2-847 limits assumed): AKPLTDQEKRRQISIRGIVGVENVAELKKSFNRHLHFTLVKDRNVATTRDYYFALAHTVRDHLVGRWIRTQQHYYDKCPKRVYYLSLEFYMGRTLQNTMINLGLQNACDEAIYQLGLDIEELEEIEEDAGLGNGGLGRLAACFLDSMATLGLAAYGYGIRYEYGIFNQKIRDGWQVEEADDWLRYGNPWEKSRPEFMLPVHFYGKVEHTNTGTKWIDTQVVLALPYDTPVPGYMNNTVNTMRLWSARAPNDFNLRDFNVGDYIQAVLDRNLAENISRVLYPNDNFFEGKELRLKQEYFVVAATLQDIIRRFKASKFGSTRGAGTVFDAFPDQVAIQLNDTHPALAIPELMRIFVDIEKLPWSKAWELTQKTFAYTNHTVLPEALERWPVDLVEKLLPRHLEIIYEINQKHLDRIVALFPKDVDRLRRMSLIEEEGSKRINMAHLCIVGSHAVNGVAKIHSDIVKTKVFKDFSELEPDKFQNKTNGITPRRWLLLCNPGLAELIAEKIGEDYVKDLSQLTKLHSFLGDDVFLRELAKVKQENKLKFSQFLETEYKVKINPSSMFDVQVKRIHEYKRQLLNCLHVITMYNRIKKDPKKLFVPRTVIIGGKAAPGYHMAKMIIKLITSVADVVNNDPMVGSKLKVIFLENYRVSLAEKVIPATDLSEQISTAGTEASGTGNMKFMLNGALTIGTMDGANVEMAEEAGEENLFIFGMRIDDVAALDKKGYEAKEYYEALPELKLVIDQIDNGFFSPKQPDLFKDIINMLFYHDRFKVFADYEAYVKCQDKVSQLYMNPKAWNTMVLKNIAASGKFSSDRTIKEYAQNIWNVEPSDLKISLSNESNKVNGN
method_summary: Human liver glycogen phosphorylase a enzymatic activity assay (coupled, fluorescent resorufin readout, with and without 10 mM glucose)
Type: biochemical
reported_conditions: human liver glycogen phosphorylase a; table does not say whether with or without 10 mM glucose
reported_property: IC50 (µM)

Cc1cc(C)c(NC(=O)Nc2cc(-c3ccc(F)c(F)c3)ccc2C(=O)N[C@H](CC(=O)O)C(=O)O)c(C)c1 :: 0.11
O=C(Nc1cc(C(F)(F)F)cc(C(F)(F)F)c1)Nc1cc2ccccc2cc1C(=O)N[C@H](C(=O)O)C1CCCCC1 :: 8.18
O=C(Nc1cc2ccccc2nc1C(=O)N[C@H](C(=O)O)C1CCCCC1)Nc1c(Cl)cccc1Cl :: 0.15
COC(=O)[C@@H](NC(=O)c1sc(-c2ccc(F)cc2)cc1NC(=O)Nc1c(Cl)cccc1Cl)C1CCCCC1 :: 4.3
O=C(Nc1cc2ccccc2cc1C(=O)NC1(C(=O)O)CCSCC1)Nc1c(Cl)cc(Cl)cc1Cl :: 2.31

I: Cc1cc(C)c(NC(=O)Nc2cc3ccccc3cc2C(=O)NC2(C(=O)O)CCC(NCc3ccccc3)CC2)c(C)c1 (centres unmarked) [Example 294]
II: O=C(Nc1cc(-c2ccccc2)ccc1C(=O)N[C@H](C(=O)O)C1CCCCC1)Nc1c(Cl)cc(OC(F)(F)F)cc1Cl
III: CCOc1ccc(-c2ccc(C(=O)N[C@H](C(=O)O)C3CCCCC3)c(NC(=O)Nc3c(C)cc(C)cc3C)c2)cc1
IV: Cc1cc(C)c(NC(=O)Nc2cc(Cl)cnc2C(=O)NC2(C(=O)O)CCCCCC2)c(C)c1
V: Cc1cc(C)c(NC(=O)Nc2cc3ccccc3nc2C(=O)N[C@](C)(C(=O)O)C2CCCCC2)c(C)c1
In this exercise, place the 5 compounds in ascending sequence of their recorded IC50. Response format: the labels, sorted as the prompt asks.
III, II, V, IV, I

Origin of measurements: patent US20070249670A1
